method: Pharmacokinetics of single rising oral doses of PDS and food effect in healthy male subjects
Assay type: in vivo, human
conditions: male, human, plasma, po, 200 mg, single oral 200 mg, healthy male subjects, n = 5; median
endpoint.name: Tmax (h)

>  <molecule>
O=S(=O)([O-])CCCS(=O)(=O)[O-].[Na+].[Na+] [PDS]

>  <reported.value>
1

$$$$

* * *

method: Pharmacokinetics of single rising oral doses of PDS and food effect in healthy male subjects
Type: in vivo, human
conditions: male, human, plasma, po, 100 mg, single oral 100 mg, healthy male subjects, n = 6; median

>  <molecule>
O=S(=O)([O-])CCCS(=O)(=O)[O-].[Na+].[Na+] [PDS]

>  <unit.label>
h

>  <Tmax>
1

$$$$

* * *

method: Pharmacokinetic profile of a single oral dose of 800 mg PDS in subjects with varying degrees of renal impairment vs healthy volunteers
Assay type: in vivo
conditions: human, plasma, single oral 800 mg, Severe renal impairment, GFR <30 mL/min, n = 6, mean, read-out: AUC0-Tlast

>  <compound>
O=S(=O)([O-])CCCS(=O)(=O)[O-].[Na+].[Na+] [PDS]

>  <AUC(0-t) (ng·h/mL)>
29200

$$$$

* * *

method: Pharmacokinetic profile of a single oral dose of 800 mg PDS in subjects with varying degrees of renal impairment vs healthy volunteers
Assay type: in vivo
conditions: human, plasma, single oral 800 mg, Moderate renal impairment, GFR 30-50 mL/min, n = 4, median

>  <structure>
O=S(=O)([O-])CCCS(=O)(=O)[O-].[Na+].[Na+]

>  <Tmax [min]>
30

$$$$

Numbers sourced from patent US20130296434A1.
